Target Desc: 5-hydroxytryptamine receptor 1A (Homo sapiens, UniProt P08908)
Measurement Name: Ki (nM)

As a guide, the following entries are already answered.
> print(dat)
                           molecular.string  observed.value
1  CN1CCN(c2nccc3cc4c(cc23)N(C(=O)c2ccc(C#N)cc2)CC4)CC1               1
2  CCc1c(C(=O)N2CCc3cc4ccnc(N5CCN(CC)CC5)c4cc32)cnn1-c1ccc(C#N)cc1            3.16
3  CCc1c(C(=O)N2CCc3cc4ccnc(N5CCN6CCC[C@H]6C5)c4cc32)cnn1-c1ccc(C#N)cc1            1.26

P = CCc1c(C(=O)N2CCc3cc4ccnc(N5CCN(C)CC5)c4cc32)cnn1-c1ccc(C#N)cc1
Q = CN1CCN(c2nccc3cc4c(cc23)N(C(=O)c2ccccc2Cl)CC4)CC1
Compare P and Q by numeric Ki and name the larger one. // return label of chosen record Q
(Q: 5.01 nM, P: 1.26 nM)

###

Measured Ki on 5-hydroxytryptamine receptor 1B (Homo sapiens, UniProt P28222) follows.
Sequence (P28222 whole entry): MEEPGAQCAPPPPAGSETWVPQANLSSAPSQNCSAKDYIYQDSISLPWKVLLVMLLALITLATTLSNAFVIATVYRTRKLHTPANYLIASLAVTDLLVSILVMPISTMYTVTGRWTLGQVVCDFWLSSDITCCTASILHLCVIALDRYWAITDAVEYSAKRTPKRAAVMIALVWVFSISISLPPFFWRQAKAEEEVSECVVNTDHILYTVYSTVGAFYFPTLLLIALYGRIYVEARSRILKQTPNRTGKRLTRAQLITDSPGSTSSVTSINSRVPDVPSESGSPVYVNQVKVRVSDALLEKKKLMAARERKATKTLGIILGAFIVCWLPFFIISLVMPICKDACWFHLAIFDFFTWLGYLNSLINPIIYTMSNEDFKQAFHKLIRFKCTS
Measurement Name: Ki (nM)

Answered examples (7):
> print(dat)
                           molecular.string  measurement.name  unit.text  observed.value
1  CCc1c(C(=O)N2CCc3cc4ccnc(N5CCN(C(C)C)CC5)c4cc32)cnn1-c1ccc(C#N)cc1                Ki         nM            3.98
2  Cc1cc(C(=O)N2CCc3cc4ccnc(N5CCN(C)CC5)c4cc32)c(C(F)(F)F)o1                Ki         nM               2
3  CN1CCN(c2nccc3cc4c(cc23)N(C(=O)c2cnn3ccccc23)CC4)CC1                Ki         nM               1
4  CN1CCN(c2cc3c(cc2Cl)CCN3C(=O)Nc2ccc(-c3ccncc3)c3ccccc23)CC1                Ki         nM            7.94
5  CN1CCN(c2nccc3cc4c(cc23)N(C(=O)c2cccc3ncccc23)CC4)CC1                Ki         nM           0.794
6  CCc1c(C(=O)N2CCc3cc4ccnc(N5CCN6CCC[C@H]6C5)c4cc32)cnn1-c1ccc(C#N)cc1                Ki         nM               2
7  CCc1c(C(=O)N2CCc3cc4ccnc(N5CCN6CCC[C@@H]6C5)c4cc32)cnn1-c1ccc(C#N)cc1                Ki         nM               1

P = CCc1c(C(=O)N2CCc3cc4ccnc(N5CCNCC5)c4cc32)cnn1-c1ccc(C#N)cc1
Q = CN1CCN(c2nccc3cc4c(cc23)N(C(=O)c2ccc(C#N)cc2)CC4)CC1
Between the two listed entries P and Q , which has its Ki at the higher number? Answer = label. P

###

Target Desc: 5-hydroxytryptamine receptor 1A (Homo sapiens)
Sequence (P08908 whole entry): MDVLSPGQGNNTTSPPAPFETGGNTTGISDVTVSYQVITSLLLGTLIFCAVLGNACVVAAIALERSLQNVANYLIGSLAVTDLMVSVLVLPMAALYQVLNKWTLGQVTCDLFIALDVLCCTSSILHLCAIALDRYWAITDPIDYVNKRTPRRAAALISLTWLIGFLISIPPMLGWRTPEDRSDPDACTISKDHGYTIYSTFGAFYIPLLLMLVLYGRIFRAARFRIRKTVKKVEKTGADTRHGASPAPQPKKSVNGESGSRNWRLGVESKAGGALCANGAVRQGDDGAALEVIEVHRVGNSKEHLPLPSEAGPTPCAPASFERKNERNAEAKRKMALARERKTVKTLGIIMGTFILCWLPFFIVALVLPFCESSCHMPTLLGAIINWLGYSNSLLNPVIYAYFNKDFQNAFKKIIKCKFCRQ
Measurement Name: Ki (nM)

Some solved entries appear below for comparison.
> print(dat)
                           molecular.string  unit.text  observed.value
1  CN1CCN(c2cc3c(cc2Cl)CCN3C(=O)Nc2ccc(-c3ccncc3)c3ccccc23)CC1         nM              10
2  CCc1c(C(=O)N2CCc3cc4ccnc(N5CCN6CCC[C@@H]6C5)c4cc32)cnn1-c1ccc(C#N)cc1         nM            1.58

A = Cc1nc(C)c(C(=O)N2CCc3cc4ccnc(N5CCN(C)CC5)c4cc32)o1
B = CN1CCN(c2nccc3cc4c(cc23)N(C(=O)c2ccccc2C(F)(F)F)CC4)CC1
C = CCc1c(C(=O)N2CCc3cc4ccnc(N5C[C@@H](C)N[C@@H](C)C5)c4cc32)cnn1-c1ccc(C#N)cc1
rank_up(items): orders items by reported Ki in ascending numerical order. # answer = labels listed in requested order A, B, C
